ASSAYED TARGET: human BChE (Homo sapiens, UniProt P06276)
Sequence (P06276 29-602): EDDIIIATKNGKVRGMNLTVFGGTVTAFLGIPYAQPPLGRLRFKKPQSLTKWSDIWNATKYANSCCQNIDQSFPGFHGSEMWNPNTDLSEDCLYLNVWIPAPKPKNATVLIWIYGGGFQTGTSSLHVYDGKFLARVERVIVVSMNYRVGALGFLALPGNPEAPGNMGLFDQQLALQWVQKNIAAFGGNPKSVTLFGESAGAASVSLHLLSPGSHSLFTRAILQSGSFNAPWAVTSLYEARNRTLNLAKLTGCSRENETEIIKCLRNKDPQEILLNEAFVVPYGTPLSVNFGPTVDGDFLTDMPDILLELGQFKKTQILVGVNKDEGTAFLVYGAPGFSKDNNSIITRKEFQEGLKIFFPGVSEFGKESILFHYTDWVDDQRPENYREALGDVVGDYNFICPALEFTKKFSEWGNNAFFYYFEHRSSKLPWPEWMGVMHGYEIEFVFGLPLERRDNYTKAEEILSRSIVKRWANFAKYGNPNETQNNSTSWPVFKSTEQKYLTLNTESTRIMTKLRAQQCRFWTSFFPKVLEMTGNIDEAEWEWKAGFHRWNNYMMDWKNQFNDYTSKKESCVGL
ASSAY INFO: biochemical
ASSAY CONDITIONS: read-out: BChE % Inhibition
Decide by inhibition at 1000 µM: equal to or exceeding 30% means criterion met, less means criterion not met.

O=C(c1ccccc1)c1oc2ccccc2c1CSC(=S)N1CCN(c2ccccc2)CC1	criterion met

Q: Quick check: does O=C(c1ccccc1)c1oc2ccccc2c1CSC(=S)N1CCCCC1 have inhibition at 1000 µM greater than or equal to 30%?
Result: criterion met

Q: Does O=C(c1ccccc1)c1oc2ccccc2c1CSC(=S)N1CCN(c2ccc(F)cc2)CC1 have a reported inhibition at 1000 µM of at least 30%?
Result: criterion met

Q: Does the compound O=C(c1ccccc1)c1oc2ccccc2c1CSC(=S)N1CCOCC1 have recorded inhibition at 1000 µM that is 30% or more?
Result: criterion not met

Q: API: above_or_equal(metric=inhibition at 1000 µM, cutoff=30%) for item O=C(c1ccccc1)c1oc2ccccc2c1CSC(=S)N1CCN(CCO)CC1
Result: criterion met

Q: Entry O=C(c1ccccc1)c1oc2ccccc2c1CSC(=S)N1CCC(Cc2ccccc2)CC1 : is its inhibition at 1000 µM no less than 30%?
Result: criterion met

* * *

ASSAYED TARGET: AChE (Homo sapiens, UniProt P22303)
Sequence (P22303 32-614): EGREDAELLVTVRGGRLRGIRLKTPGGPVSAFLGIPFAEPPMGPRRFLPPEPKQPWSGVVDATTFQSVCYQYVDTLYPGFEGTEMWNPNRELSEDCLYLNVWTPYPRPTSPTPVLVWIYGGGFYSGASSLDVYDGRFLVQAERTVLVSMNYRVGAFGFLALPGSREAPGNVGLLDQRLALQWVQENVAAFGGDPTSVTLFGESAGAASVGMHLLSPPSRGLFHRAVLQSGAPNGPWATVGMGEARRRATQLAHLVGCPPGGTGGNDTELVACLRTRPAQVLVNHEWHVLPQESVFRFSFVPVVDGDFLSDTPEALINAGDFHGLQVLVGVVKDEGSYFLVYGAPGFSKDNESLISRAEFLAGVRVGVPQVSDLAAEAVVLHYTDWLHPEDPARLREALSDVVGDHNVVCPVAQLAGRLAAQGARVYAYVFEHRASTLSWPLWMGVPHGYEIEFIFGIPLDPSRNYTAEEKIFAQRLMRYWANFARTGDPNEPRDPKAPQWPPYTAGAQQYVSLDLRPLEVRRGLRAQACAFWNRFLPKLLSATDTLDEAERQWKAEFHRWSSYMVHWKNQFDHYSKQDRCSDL
ASSAY INFO: AChE inhibition, modified Ellman approach
Assay type: biochemical
ASSAY CONDITIONS: 10^-6 M
Catalogue of inhibition at 1 µM readings, one per entry.
Field: numeric (%). Do not append units.

Check out these entries, answers already filled in.
O=C(c1ccccc1)c1oc2ccccc2c1CSC(=S)N1CCN(CCO)CC1	75.4
O=C(c1ccccc1)c1oc2ccccc2c1CSC(=S)N1CCN(c2ccc(F)cc2)CC1	65.8
O=C(c1ccccc1)c1oc2ccccc2c1CSC(=S)N1CCC(Cc2ccccc2)CC1	74.3

Q: Supply reported inhibition at 1 µM belonging to this molecule: O=C(c1ccccc1)c1oc2ccccc2c1CSC(=S)N1CCN(C(=O)c2ccco2)CC1
Result: 75.9

* * *

ASSAYED TARGET: AChE (Homo sapiens, UniProt P22303)
ASSAY INFO: AChE inhibition, modified Ellman approach
Format: biochemical
ASSAY CONDITIONS: 10^-8 M
MEASURED PARAMETER: inhibition at 0.01 µM (%)
Give just the number in %; leave the unit off.

O=C(c1ccccc1)c1oc2ccccc2c1CSC(=S)N1CCC(Cc2ccccc2)CC1 [4e]	45.4
O=C(c1ccccc1)c1oc2ccccc2c1CSC(=S)N1CCN(c2ccc(F)cc2)CC1 [4o]	48
O=C(c1ccccc1)c1oc2ccccc2c1CSC(=S)N1CCN(CCO)CC1 [4m]	44.7

Alright, here's another compound for you.
Q: Please supply the value of reported inhibition at 0.01 µM for the item O=C(c1ccccc1)c1oc2ccccc2c1CSC(=S)N1CCN(C(=O)c2ccco2)CC1 [4h]
Result: 45.7

* * *

ASSAYED TARGET: human BChE (Homo sapiens, UniProt P06276);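 note: inhibition of BChE determined with an adapted Ellman method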
ASSAY INFO: biochemical
ASSAY CONDITIONS: read-out: BChE % Inhibition
MEASURED PARAMETER: inhibition at 1000 µM

These recorded examples may help you get a feel for the data.
O=C(c1ccccc1)c1oc2ccccc2c1CSC(=S)N1CCN(c2ccc([N+](=O)[O-])cc2)CC1	30.4%
CC1CCCN(C(=S)SCc2c(C(=O)c3ccccc3)oc3ccccc23)C1 (stereo not shown)	30.4%
O=C(c1ccccc1)c1oc2ccccc2c1CSC(=S)N1CCN(c2ccc(Cl)cc2)CC1	29.6%

Q: Answer with reported inhibition at 1000 µM of COc1ccc(N2CCN(C(=S)SCc3c(C(=O)c4ccccc4)oc4ccccc34)CC2)cc1
Result: 30.5%
